Hey, just so you know, these numbers are from paper PMC10178421.

- Test system: CPG-c-myc (DNA, G4) TGGGGAGGGTGGGGAGGGTGGGGAAGGTGGGGA
- assay name: G4-CPG affinity chromatography
- measurement setup: 50 mM KCl; 10% DMSO, 10% ethanol; 60 μM compound; error ±2%
measured quantity: Bound Ligand (%)
Report the figure in % without appending any unit label.

Query: Could you tell me which Bound Ligand (%) is on file for "C=Cc1c(C)c(O[C@H]2O[C@H](CO)[C@@H](O)[C@H](O)[C@H]2O)cc2c1-c1ccc(O)c(C)c1CC2" ?
Response: 0

Query: Quick one: C=CC12C(=O)C(C)(O)C(CC1c1cc(C)cc3c1-c1ccc(O)c(C)c1CC3)C1=C2c2ccc(OC)c(C)c2CC1 (stereo not shown)
Response: 0

Query: Quick one: "C=Cc1c(C)c(O)cc2c1-c1ccc(O)c(C)c1CC2"
Response: 4

Query: Quick one: "C=Cc1c(C)c(O[C@@H]2O[C@H](CO)[C@@H](O)[C@H](O)[C@H]2O)cc2c1-c1ccc(O)c(C)c1CC2"
Response: 3

Query: Quick one: C=CC12C3=C(CCc4c3ccc(O)c4C)C(CC1c1cc(C)cc3c1-c1ccc(O)c(C)c1CC3)C(C)(O)C2O (stereo not shown)
Response: 18

Query: Quick one: "Cc1c(O)cc2c3c1CCc1cc(O[C@H]4O[C@H](CO)[C@@H](O)[C@H](O)[C@H]4O)c(C)c(c1-3)CC2"
Response: 8

Query: Quick one: C=CC12C(=O)C(C)(O)C3CC1c1c4c(cc(C)c1C31CCc3c(ccc(O)c3C)C21O)CCc1c-4ccc(O)c1C (stereo not shown)
Response: 56
